median [+ligand]/median [w/o ligand]*100 listing for selected binders.
- experimental-system: T1, human FLT3 (human, UniProt P36888 27-993)
- T1 construct: On transfected CHO cells, or on the FLT3 positive human AML cell lines EOL-1 / MV4-11 where the row says so; also called hu FLT3; full length human FLT3
- assay-protocol: FACS, scFv on CHO-human FLT3 pre-incubated with FLT3 ligand (competitor)

Previously resolved entries follow.
[[record]]
binder = "FL-8 scFv (scFv, periplasmic prep) scFv: QVTLKESGPALVKPTETLTLTCTVSGFSLSYARMGVSWIRQPPGKALEWLAQIFSNDEKSYSTSLKSRLTISKGTSNSQVVLTMTNMDPEDTATYYCARIVGYGTGWYGFFDYWGQGILVTVSSGGGGSGGGGSGGGGSDIQMTQSPSSLSASVGDRVTITCRASQGIRNDLGWYQQKPGKAPKRLIYAASSLQSGVPSRFSGSGSGTEFTLTISSLQPEDFATYYCLQHNSYPLTFGGGTKVDIK"
endpoint_value = "≥ 75%"

[[record]]
binder = "FL-36 scFv (scFv, periplasmic prep) scFv: QVTLKESGPTLVKPTETLTLTCTFSGFSLRYARMGVSWIRQPPGKALEWLAHIFSNDEKSYSTSLKSRLTISKDTSKSQVVLTLTNMDPVDTATYFCARMPEYSSGWSGAFDIWGQGTMVTVSSGGGGSGGGGSGGGGSDIQMTQSPSSLSASVGDRVTITCRASQDIRNDLAWYQQKPGKAPKRLIYAASSLQSGVPSRFSGSGSGTEFTLTISSLQPEDFATYYCLQHNSYPLTFGGGTKLEIK"
endpoint_value = "≥ 75%"

[[record]]
binder = "FL-62 scFv (scFv, periplasmic prep; also called F-62) scFv: QVQLVESGGGVVQPGRSLRLSCAASGFTFSSYGMHWVRQAPGKGLEWVAVISYDGSNEFYADSVKGRFTISRDNSKNTLYLQMNSLRAEDTAVYYCARGGEITMVRGVIGYYYYGMDVWGQGTTVTVSSGGGGSGGGGSGGGGSEIVMTQSPATLSVSPGERATLSCRASQGVRNNLVWYQQKPGQAPRLLIYGASTRATGIPARFSGSGSGTEFTLTISSLQSEDFATYYCLQHNSYPLTFGGGTKVEIK"
endpoint_value = "≥ 75%"

[[record]]
binder = "FL-14 scFv (scFv, periplasmic prep) scFv: QVTLKESGPALVKPTETLTLTCTLSGFSLNNARMAVSWIRQPPGKTLEWLAHIFSNDEKSYSTSLKSRLTISKDTSKGQVVLTMTNMDPVDTATYYCARIVGYGSGWYGYFDYWGQGTLVTVSSGGGGSGGGGSGGGGSDIQMTQSPSSLSASVGDRVTITCRASQDIRNDLGWYQQKPGKAPKRLIYAASTLQSGVPSRFSGSGSGTEFTLTISSLQPEDFATYYCLQHNSYPLTFGGGTKVEIK"
endpoint_value = "≥ 75%"

[[record]]
binder = "FL-35 scFv (scFv, periplasmic prep) scFv: QVTLKESGPALVKPTETLTLTCTVSGFSLNNARMGVSWIRQPPGKALEWLAHIFSNDEKSYSTSLKNRLTISKDSSKTQVVLTMTNVDPVDTATYYCARIVGYGTGWYGFFDYWGQGTQVTVSSGGGGSGGGGSGGGGSDIQMTQSPSSLSASVGDRVTITCRASQDIRDDLVWYQQKPGKAPKRLIYGTSTLQSGVPSRFSGSGSGTEFTLTISSLQPEDFATYYCLQHHSYPLTFGGGTKLEIK"
endpoint_value = "≥ 75%"


In the following, a different binder is considered.
In: Which median [+ligand]/median [w/o ligand]*100 is reported for this binder? FL-55 scFv (scFv, periplasmic prep) scFv: QVQLVESGGGVVQPGRSLRLSCAASGFTFSSYGMHWVRQAPGKCLEWVAVISYDGSNKYYADSVKGRFTISRDNSKNTLYLQMNSLRAEDTAVYYCARSYGMDVWGQGTTVTVSSGGGGSGGGGSGGGGSDIQMTQSPSSVSASVGDRVTITCRASQGISSWLAWYQQKPGKAPKLLIYAASSLQSGVPSRFSGSGSGTDFTLTISSLQPEDFATYYCQQANSFPWTFGCGTKLEIK
Out: ≥ 75%
